- test.system: T1, 4H457-bH
- T1 chain: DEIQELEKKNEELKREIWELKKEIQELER
- test: two-hybrid library CCNG1;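 note: natural log of median RNA to DNA barcode read ratio; higher means stronger binding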
# strict inequality: interaction score < 0.5 yields criterion met, everything else yields criterion not met

Some solved entries appear below for comparison.
binder	class.name
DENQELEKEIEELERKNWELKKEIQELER [4H1081-bH]	criterion met
DKNQELEKKIEELKRKIWELEKENQELER [4H3427-bH]	criterion met
DEIQELEKEIEELKRKIWELKKKNQELKR [4H112-bH]	criterion not met
DEIQELEKENEELERKIWELKKEIQELKR [4H170-bH]	criterion not met
DKIQELKKENEELEREIWELKKKIQELKR [4H2702-bH]	criterion not met

Shifting focus to the binder that follows.
Strictly below 0.5 in interaction score? DKNQELKKKIEELKRENWELEKKIQELKR [4H3926-bH] criterion met
